target: KRAS G12D (Homo sapiens (Human), UniProt P01116, G12D); assay: KRAS G12D LoEnz Biochemical Assay, BODIPY-GDP Exchange TR-FRET (SOS1-mediated nucleotide exchange); details: read-out: KRas (G12D) GDP HTRF IC50
Sequence (P01116-2 other isoform, or with tags, fused parts or gaps G12D): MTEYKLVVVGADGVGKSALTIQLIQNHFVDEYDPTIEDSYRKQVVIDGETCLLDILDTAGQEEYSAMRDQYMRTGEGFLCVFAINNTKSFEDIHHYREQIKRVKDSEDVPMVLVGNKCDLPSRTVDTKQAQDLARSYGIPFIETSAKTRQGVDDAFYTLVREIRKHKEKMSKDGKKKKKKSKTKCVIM
Each entry below lists one item and its recorded IC50 value.
readout.type: IC50 (nM)

{"columns": ["molecule", "measurement.unit", "observed.result"],
 "data": [
  ["Cc1c(F)c(N)cc(-c2nc3c4c(nc(OC[C@@]56CCCN5[C@@H](C(F)F)CC6)nc4c2F)N2C[C@H]4CC[C@H](N4)[C@H]2[C@H](C)O3)c1C(F)(F)F (single isomer, unassigned) [130 (isomer 2)]", "nM", 0.92],
  ["Cc1nc(N)c(F)c(-c2nc3c4c(nc(OC[C@@]56CCCN5CC5(CC5(F)F)C6)nc4c2F)N2C[C@H]4CC[C@H](N4)[C@H]2[C@H](C(F)(F)F)O3)c1C(F)(F)F (stereo partly drawn)", "nM", 0.89],
  ["Cc1c(F)c(N)cc(-c2nc3c4c(nc(OC[C@H]5COC[C@H]6CCCN65)nc4c2F)N2C[C@H]4CC[C@H](N4)[C@H]2[C@H](C)O3)c1C(F)(F)F (single isomer, unassigned) [121 (isomer 1)]", "nM", 0.68]
]}
